# activity coefficient annotations
- experimental-details: activity coefficient (dimensionless); of the first substance listed, at infinite dilution; xn = mol fraction of the nth substance listed
- recorded-conditions: 358.15 K; 101 kPa; Liquid; Chromatography; x1 = 0
measured-attribute: activity coefficient

>>> reported_measurement("CO [methanol] + CCCC[N+](C)(CCCC)CCCC.COS(=O)(=O)[O-]")
0.14
>>> reported_measurement("CCC(C)O (stereo unspecified) [butan-2-ol] + CCCC[N+](C)(CCCC)CCCC.COS(=O)(=O)[O-]")
0.24
>>> reported_measurement("CCO [ethanol] + CCCC[N+](C)(CCCC)CCCC.COS(=O)(=O)[O-]")
0.19
>>> reported_measurement("CCCCO [butan-1-ol] + CCCC[N+](C)(CCCC)CCCC.COS(=O)(=O)[O-]")
0.25
>>> reported_measurement("CCCO [propan-1-ol] + CCCC[N+](C)(CCCC)CCCC.COS(=O)(=O)[O-]")
0.21
>>> reported_measurement("CC(C)(C)O [2-methylpropan-2-ol] + CCCC[N+](C)(CCCC)CCCC.COS(=O)(=O)[O-]")
0.25
